system under test: T1, TauC3 (C-terminally truncated tau fragment ending at aspartate 421 of htau40) (human, UniProt P10636 1-738)
T1 construct: Generated and purified by Genscript; also called Human TauC3; recombinant TauC3 protein
T1 sequence (P10636 other isoform, or with tags, fused parts or gaps): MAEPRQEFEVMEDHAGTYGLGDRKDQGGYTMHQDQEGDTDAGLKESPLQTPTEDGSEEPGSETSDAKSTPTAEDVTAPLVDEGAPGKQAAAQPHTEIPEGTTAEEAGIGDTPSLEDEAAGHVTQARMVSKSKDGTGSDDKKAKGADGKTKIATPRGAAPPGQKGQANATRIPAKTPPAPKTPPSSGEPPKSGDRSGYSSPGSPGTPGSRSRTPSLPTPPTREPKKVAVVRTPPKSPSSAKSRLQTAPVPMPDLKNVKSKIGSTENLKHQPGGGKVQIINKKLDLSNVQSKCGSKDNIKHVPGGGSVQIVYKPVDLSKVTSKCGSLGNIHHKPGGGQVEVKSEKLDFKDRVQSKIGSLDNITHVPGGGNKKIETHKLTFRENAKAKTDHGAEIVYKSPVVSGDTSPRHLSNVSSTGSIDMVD
assay: binding ELISA on coated TauC3, OD650
value kind: EC50

INSERT INTO measurements (binder, value_kind, value_observed) VALUES
  ('HCKH (antibody, V domains shown, humanized variant, HC with KH; also called Tau01 HCKH HuG4K) VH: LVQLVESGGGLVQPGGSLKLSCAASGFTFNTYAMNWVRQASGKGLEWVGRIRSKSNNYATYYAASVKGRFTISRDDSKSMAYLQMDSLKTEDTAVYYCVGGGDFWGQGTLVTVSS VL: DIQMTQSPSSLSASVGDRVTITCRASQEISVYLGWYQQKPGKAPKRLIYGAFKLQSGVPSRFSGSRSGSEFTLTISSLQPEDFATYYCLQYVRYPWTFGGGTKVEIK', 'EC50', '1.03 nM'),
  ('HCKD (antibody, V domains shown, humanized variant, HC with KD; also called Tau01 HCKD HuG4K) VH: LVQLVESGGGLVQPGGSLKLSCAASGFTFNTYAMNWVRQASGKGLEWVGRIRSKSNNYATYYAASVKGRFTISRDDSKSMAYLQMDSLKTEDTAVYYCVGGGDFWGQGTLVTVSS VL: DIQMTQSPSSLSASVGDRVTITCRASQEISVYLSWYQQKPGKAPKRLIYGAFKLQSGVPSRFSGSRSGTEFTLTISSLQPEDFATYYCLQYVRYPWTFGGGTKVEIK', 'EC50', '2.02 nM'),
  ('Tau01 HCKA (antibody, V domains shown, human IgG4 kappa (HuG4K)) VH: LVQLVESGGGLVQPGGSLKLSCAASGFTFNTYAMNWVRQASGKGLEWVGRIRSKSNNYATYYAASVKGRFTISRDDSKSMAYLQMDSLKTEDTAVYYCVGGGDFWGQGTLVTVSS VL: DIQMTQSPSSLSASVGDRVTITCRASQEISVYLGWYQQKPGKAPKRLIYGAFKLQSGVPSRFSGSRSGTEFTLTISSLQPEDFATYYCLQYVRYPWTFGGGTKVEIK', 'EC50', '0.959 nM'),
  ('HCKF (antibody, V domains shown, humanized variant, HC with KF; also called Tau01 HCKF HuG4K) VH: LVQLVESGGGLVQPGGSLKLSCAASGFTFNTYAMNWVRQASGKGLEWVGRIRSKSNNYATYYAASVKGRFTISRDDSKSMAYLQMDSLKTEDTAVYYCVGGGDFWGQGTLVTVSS VL: DIQMTQSPSSLSASVGDRVTITCRASQEISVYLGWYQQKPGKAIKRLIYGAFKLQSGVPSRFSGSRSGTEFTLTISSLQPEDFATYYCLQYVRYPWTFGGGTKVEIK', 'EC50', '2.25 nM'),
  ('Tau01 HCKE (antibody, V domains shown, human IgG4 kappa (HuG4K)) VH: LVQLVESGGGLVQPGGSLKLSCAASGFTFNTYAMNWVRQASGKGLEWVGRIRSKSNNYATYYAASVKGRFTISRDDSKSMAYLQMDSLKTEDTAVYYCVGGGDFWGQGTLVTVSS VL: DIQMTQSPSSLSASVGDRVTITCRASQEISVYLGWFQQKPGKAPKRLIYGAFKLQSGVPSRFSGSRSGTEFTLTISSLQPEDFATYYCLQYVRYPWTFGGGTKVEIK', 'EC50', '1.24 nM'),
  ('Tau01 HCKB HuG4K (antibody, V domains shown, human IgG4 kappa (HuG4K)) VH: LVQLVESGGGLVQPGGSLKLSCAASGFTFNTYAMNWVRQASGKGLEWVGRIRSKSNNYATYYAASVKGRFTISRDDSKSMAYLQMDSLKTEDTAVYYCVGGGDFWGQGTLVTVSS VL: DIQMTQSPSSLSASVGDRVTITCRASQEISVYLSWFQQKPGKAIKRLIYGAFTLQSGVPSRFSGSRSGSEYTLTISSLQPEDFATYYCLQYVRYPWTFGGGTKVEIK', 'EC50', '0.628 nM'),
  ('Tau01 HCKG (antibody, V domains shown, human IgG4 kappa (HuG4K)) VH: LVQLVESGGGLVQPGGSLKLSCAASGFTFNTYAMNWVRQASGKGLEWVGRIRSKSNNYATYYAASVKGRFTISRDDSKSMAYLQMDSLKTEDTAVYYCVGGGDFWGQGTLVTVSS VL: DIQMTQSPSSLSASVGDRVTITCRASQEISVYLGWYQQKPGKAPKRLIYGAFTLQSGVPSRFSGSRSGTEFTLTISSLQPEDFATYYCLQYVRYPWTFGGGTKVEIK', 'EC50', '0.98 nM'),
  ('Tau01 HCKJ (antibody, V domains shown, human IgG4 kappa (HuG4K)) VH: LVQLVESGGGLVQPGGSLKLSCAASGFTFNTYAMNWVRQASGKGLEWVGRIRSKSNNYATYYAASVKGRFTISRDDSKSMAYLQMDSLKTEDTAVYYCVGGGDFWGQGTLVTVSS VL: DIQMTQSPSSLSASVGDRVTITCRASQEISVYLGWYQQKPGKAPKRLIYGAFSLQSGVPSRFSGSRSGTEFTLTISSLQPEDFATYYCLQYVRYPWTFGGGTKVEIK', 'EC50', '1.01 nM'),
  ('MoTau01 HuG4K chimeric antibody (antibody, V domains shown, Mouse variable regions with human IgG4 / kappa constant regions (pHuG4, pHuK); also called chimeric Tau01) VH: EVQVVESGGGLVQPKGSLKLSCAASGFTFNTYAMNWVRQAPGKGLEWVARIRSKSNNYATYYADSVKDRFTISRDDSQSMVYLQMNNLKTEDTAMYYCVGGGDFWGQGTALTVSS VL: DIQMTQSPSSLSASLGERVSLTCRASQEISVYLSWFQQKPDGTIKRLIYGAFTLDSGVPKRFSGSRSGSDYSLTISSLESEDFADYYCLQYVRYPWTFGGGTKLEIK', 'EC50', '0.724 nM'),
  ('Tau01 HCKI (antibody, V domains shown, human IgG4 kappa (HuG4K)) VH: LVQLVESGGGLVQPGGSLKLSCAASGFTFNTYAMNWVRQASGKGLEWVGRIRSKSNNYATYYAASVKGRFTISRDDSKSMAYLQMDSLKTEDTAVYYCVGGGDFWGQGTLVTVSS VL: DIQMTQSPSSLSASVGDRVTITCRASQEISVYLGWYQQKPGKAPKRLIYGAFKLQSGVPSRFSGSRSGTEYTLTISSLQPEDFATYYCLQYVRYPWTFGGGTKVEIK', 'EC50', '0.741 nM');
